Test system: L1210 leukemia ip in BDF1 mice, survival T/C
Assay: NCI In Vivo Anticancer Drug Screen. Data for tumor model L1210 Leukemia (intraperitoneal) in B6D2F1 (BDF1) mice
Settings: endpoint: mean survival time; dose: 200.0 mg/kg/injection; schedule: Q04DX002 (ip); vehicle: other; higher = longer survival
Inconclusive results and toxic doses are left out.
This listing pairs compounds with measured T/C.

Examples with their reported T/C follow.
INSERT INTO assay_data (compound, target_or_system, observed_result) VALUES
  ('CC(C)NC(=O)CCSCCC(=O)NC(C)C', 'L1210 leukemia ip in BDF1 mice, survival T/C', '94 % of control'),
  ('COC(=O)C(Br)(C(=O)OC)C(c1ccccc1)c1ccccc1', 'L1210 leukemia ip in BDF1 mice, survival T/C', '86 % of control'),
  ('CCCCCS(=O)(=O)N1CCCCCC1', 'L1210 leukemia ip in BDF1 mice, survival T/C', '87 % of control'),
  ('NC(=O)OCCc1c2ccccc2nc2ccccc12', 'L1210 leukemia ip in BDF1 mice, survival T/C', '103 % of control'),
  ('Cc1cccc(C)c1SSc1c(C)cccc1C', 'L1210 leukemia ip in BDF1 mice, survival T/C', '101 % of control');

Inquiry: Look up T/C: Cc1cc(O)c(O)c(C(C)(C)C)c1
Reply text: 87 % of control

Inquiry: And the next one, Cc1ccc(S(=O)N(OCc2ccccc2)S(=O)c2ccc(C)cc2)cc1 (configuration not stated) ?
Reply text: 100 % of control

----------
System: L1210 leukemia ip in BDF1 mice, survival T/C
Test: NCI In Vivo Anticancer Drug Screen. Data for tumor model L1210 Leukemia (intraperitoneal) in B6D2F1 (BDF1) mice
Details: endpoint: mean survival time; dose: 100.0 mg/kg/injection; schedule: Q04DX003 (ip); vehicle: saline; higher = longer survival
Inconclusive results and toxic doses are left out.
Entries and their measured T/C follow.

// known answers, use as guide
INSERT INTO assay_data (compound, endpoint_label, observed_result) VALUES
  ('CCOP(=O)(OCC)Oc1ccccc1', 'T/C', '91 % of control'),
  ('C=CCN(C(=O)OCC)P(=O)(OCC)OCC', 'T/C', '112 % of control'),
  ('CN(C)C(=O)C1C2C=CC(C3CC23)C1C(=O)N(C)C (stereo not given)', 'T/C', '95 % of control'),
  ('Cn1nnnc1N', 'T/C', '103 % of control'),
  ('[Br][La]([Br])[Br]', 'T/C', '89 % of control');

Inquiry: Give the reported T/C for CN(C)CC(=O)N/N=C\c1ccc([N+](=O)[O-])s1 (system: L1210 leukemia ip in BDF1 mice, survival T/C).
Reply text: 91 % of control

Inquiry: Try O=C(Cl)C12CCC(CC1)C1CCC2CC1 next.
Reply text: 86 % of control

Inquiry: Follow-up entry: NCC1OC(OC2C(N)CC(N)C(O)C2OC2OC(CO)C(O)C2O)C(N)C(O)C1O (stereo not given)
Reply text: 100 % of control

Inquiry: Queued: CCCCNP(=O)(OCC)OCC
Reply text: 101 % of control

Inquiry: Consider next the compound OCNC(=S)SSC(=S)NCO in the same way.
Reply text: 96 % of control

Inquiry: Check CC1=C(c2ccccc2)OS(=O)(=O)NC1=O too.
Reply text: 100 % of control

Inquiry: Follow-up item: C(#[C][Sb]([C]#Cc1ccccc1)[C]#Cc1ccccc1)c1ccccc1
Reply text: 98 % of control

Inquiry: Lookup CCCCC1=NCCc2c1cc1c([nH]c3ccccc31)c2C
Reply text: 96 % of control

Inquiry: What do you get for Clc1ccc(/C=N\c2nn[nH]n2)c(Cl)c1 (tested in a mixture with another compound) ?
Reply text: 89 % of control

----------
System: L1210 leukemia ip in BDF1 mice, survival T/C
Experiment: NCI In Vivo Anticancer Drug Screen. Data for tumor model L1210 Leukemia (intraperitoneal) in B6D2F1 (BDF1) mice
Settings: endpoint: mean survival time; dose: 200.0 mg/kg/injection; schedule: Q04DX002 (ip); vehicle: saline; higher = longer survival
Toxic doses and inconclusive results are not listed.
ENDPOINT LABEL: T/C

INSERT INTO results (smiles_code, observed_result) VALUES
  ('COc1ccc(/C=C2\N=C(c3ccc(Cl)cc3)OC2=O)cc1Br', '93 % of control'),
  ('O=C(CCCc1ccc(N(CCCl)CCCl)cc1)OCc1ccccc1', '108 % of control'),
  ('CNC(Cl)(Cl)NC', '88 % of control');

Inquiry: Give L1210 leukemia ip in BDF1 mice, survival T/C T/C for O=C(O)C1(O)CCCCC1
Reply text: 93 % of control

Inquiry: Try this compound too: CC1(C)CC[C@]2(C(=O)O)CC[C@]3(C)C(=CC[C@@H]4[C@@]5(C)CC[C@H](O)C(C)(C)[C@@H]5CC[C@]43C)[C@@H]2C1
Reply text: 97 % of control

Inquiry: Another compound: CSc1cccc[n+]1[O-]
Reply text: 105 % of control

Inquiry: Likewise for O=C1c2ccccc2C(=O)c2c1ccc1c(S(=O)(=O)Cl)cccc21 ?
Reply text: 97 % of control

----------
Tested on: L1210 leukemia ip in BDF1 mice, survival T/C
Assay: NCI In Vivo Anticancer Drug Screen. Data for tumor model L1210 Leukemia (intraperitoneal) in B6D2F1 (BDF1) mice
Settings: endpoint: mean survival time; dose: 200.0 mg/kg/injection; schedule: Q04DX003 (ip); vehicle: saline with Tween-80; higher = longer survival
Toxic doses and inconclusive results are not listed.
ENDPOINT LABEL: T/C

Look over these answered cases.
INSERT INTO results (compound, observed_result) VALUES
  ('CCOc1ccc(NC(=S)NC(=O)c2cccc([N+](=O)[O-])c2)cc1', '96 % of control'),
  ('ClC1=NC(c2ccc(Cl)cc2)N2C1C2c1ccccc1 (configuration not stated)', '92 % of control'),
  ('c1ccc(CCNCc2ccc(CNCCc3ccccc3)cc2)cc1', '90 % of control'),
  ('O=C(O)/C=C/C(=O)NNC(=O)/C=C/C(=O)O', '98 % of control');

Inquiry: Fill in the blank: the reported T/C of CC(C)C(NC(=O)C1CSC(C)(C)N1C=O)C(=O)OC1CCCCC1 (configuration not stated) is ____.
Reply text: 101 % of control

Inquiry: Now the same for C#CC(C)(C)OC(C)=O
Reply text: 103 % of control

Inquiry: Please answer likewise for O=C(O)c1cc(O)ccc1O
Reply text: 97 % of control

----------
Test system: L1210 leukemia ip in BDF1 mice, survival T/C
Test: NCI In Vivo Anticancer Drug Screen. Data for tumor model L1210 Leukemia (intraperitoneal) in B6D2F1 (BDF1) mice
Conditions: endpoint: mean survival time; dose: 200.0 mg/kg/injection; schedule: Q01DX009 (ip); vehicle: saline with Tween-80; higher = longer survival
Inconclusive results and toxic doses are left out.
ENDPOINT LABEL: T/C

Known T/C results, listed for orientation:
INSERT INTO measurements (molecule, target_or_system, observed_result) VALUES
  ('O=C1C(Cl)=C(Cl)C(=O)N1c1ccc(Cl)c(Cl)c1', 'L1210 leukemia ip in BDF1 mice, survival T/C', '101 % of control'),
  ('CCOC(=O)/C=C(/C)Nc1ccc(SC)cc1', 'L1210 leukemia ip in BDF1 mice, survival T/C', '96 % of control'),
  ('C[Si](C)(C)Oc1cccc([Si](C)(C)C)c1', 'L1210 leukemia ip in BDF1 mice, survival T/C', '95 % of control'),
  ('Cc1cc(N(CCCOS(C)(=O)=O)CCCOS(C)(=O)=O)ccc1C=Nc1ccc(-c2nc(Cc3ccccc3)sc2C)cc1', 'L1210 leukemia ip in BDF1 mice, survival T/C', '98 % of control'),
  ('ON=C(c1ccccc1)c1ccccc1', 'L1210 leukemia ip in BDF1 mice, survival T/C', '105 % of control'),
  ('O=[N+]([O-])c1ccc2c(c1[N+](=O)[O-])CCCC2', 'L1210 leukemia ip in BDF1 mice, survival T/C', '98 % of control'),
  ('CC(Br)C(=O)Nc1ccccc1 (configuration not stated)', 'L1210 leukemia ip in BDF1 mice, survival T/C', '103 % of control'),
  ('O=C(O)C1CC1Oc1ccccc1 (configuration not stated)', 'L1210 leukemia ip in BDF1 mice, survival T/C', '92 % of control');

Inquiry: Suppose we examine the molecule OCC(O)COc1ccc(Cl)cc1Cl (configuration not stated) ; what T/C value has been reported?
Reply text: 101 % of control

----------
Tested on: L1210 leukemia ip in BDF1 mice, survival T/C
Assay: NCI In Vivo Anticancer Drug Screen. Data for tumor model L1210 Leukemia (intraperitoneal) in B6D2F1 (BDF1) mice
Conditions: endpoint: mean survival time; dose: 50.0 mg/kg/injection; schedule: Q01DX009 (ip); vehicle: saline with Tween-80; higher = longer survival
Inconclusive results and toxic doses are left out.
Here, each record is paired with measured T/C data.

Check out these entries, answers already filled in.
INSERT INTO assay_data (molecule, target_or_system, observed_result) VALUES
  ('CC(=O)Nc1ccc(NC(=O)Nc2ccc(C)cc2)cc1', 'L1210 leukemia ip in BDF1 mice, survival T/C', '90 % of control'),
  ('Cc1ccc(NC(=O)OCCOc2ccc(Cl)cc2Cl)cc1[N+](=O)[O-]', 'L1210 leukemia ip in BDF1 mice, survival T/C', '97 % of control'),
  ('CCN(CC)Cc1nc2nc(Cl)c(Cl)nc2[nH]1', 'L1210 leukemia ip in BDF1 mice, survival T/C', '105 % of control');

Inquiry: Please look up its T/C: O=C(O)C1C(=O)OC2CCCCC21 (stereo not drawn)
Reply text: 88 % of control

Inquiry: Another molecule: CSc1cc(-c2ccc(Cl)cc2)s[s+]1
Reply text: 97 % of control

Inquiry: // query: COc1ccc(OC)c(/C=N/NC(=O)C[N+](C)(C)C)c1
Reply text: 88 % of control

Inquiry: Moving on to the next molecule: O=C(O)Cc1cccc(S(=O)(=O)F)c1
Reply text: 109 % of control

Inquiry: Do the same for C=CCOC(=N)c1ccccc1 please
Reply text: 93 % of control

Inquiry: Same for CC(=O)OC1CC2CCC1(C)C2(C)C (stereo not drawn)
Reply text: 100 % of control

Inquiry: And then CC1(C)N=C(N)N=C(N)N1c1ccc(OCCCCNC(=O)Nc2cccc(S(=O)(=O)F)c2)c(Cl)c1 , what is it?
Reply text: 108 % of control

Inquiry: Please do the same for COC(=O)Cc1ccccc1OC as well.
Reply text: 87 % of control

Inquiry: Now give it for O/N=C/CCCC/C=N/O too.
Reply text: 91 % of control

Inquiry: // next record CC(C)CCCC(C)C1CCC2C3CCC4=CC5(CCC4(C)C3CCC12C)SCCS5 (stereo not drawn)
Reply text: 98 % of control

All values here come from PubChem BioAssay AID248.
